assay: NCI Yeast Anticancer Drug Screen. Data for the rad50 strain (AID 155);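 further: 0% = growth of vehicle-only cultures of the same strain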; details: S. cerevisiae rad50 strain growth inhibition; at 50.0 µM
The panel holds about 79,000 compounds, 15% with a hit somewhere; the sample as a whole holds those more often. Calls of active or inactive are those of the source. No stated cut-off is given here; in the data, active means growth inhibition above about 70%; inactive means the rest.
Respond only with the outcome that fits, drawn from Yes (active), No (inactive)

Q: Could you kindly confirm the outcome this assay logged for C=CCN(CC=C)C1CCOC(OC)C1O (stereo not drawn) ?
Result: No

Q: Dear colleague, could you share the recorded outcome for COS(=O)(=O)c1ccccc1 when you have a moment?
Result: No

Q: Give the logged outcome of this assay for the following compound: CCCC[P+](C#Cc1ccccc1)(CCCC)CCCC
Result: No

Q: Field: outcome | Entry: O=C(NC1CCCCC1)c1c(O)[nH]c(=S)[nH]c1=O
Result: No

Q: // param item: N#CC1C(=O)c2ccccc2C1=O ; yields the recorded call
Result: No

Q: Name the outcome recorded for Cc1cccc(OCC2=NCCN2)c1C in the assay.
Result: No

Q: Outcome logged for NC(=O)C1(Cl)CCCCC1 in this assay:
Result: No

Q: What did this assay record as the result for CNP(=O)(Oc1cc(Cl)c(Cl)cc1Cl)N1CCN(c2ccccc2)CC1 (stereo not drawn) ?
Result: Yes

Q: Which outcome was assigned to NC(CCCCCP(=O)(O)O)C(=O)O (stereo not drawn) in this test?
Result: No

Q: I'd appreciate the recorded outcome for c1ccc2c(c1)cc1ccc3cccc4ccc2c1c34 from this test.
Result: No

Q: Which outcome did this test record for the compound CC(=O)c1ccccc1O.CO.CO.[Cl][Ta][Cl] ?
Result: No

Q: Field: outcome | Entry: CC1C2Cc3ccc(O)cc3C1(C)CCN2C (stereo not drawn)
Result: No

Q: Could you please tell me the result logged for CCc1cccc(C(C)C)c1NC(=O)C(=O)C1C(=O)NC(=O)NC1=O in this assay?
Result: No

----------
assay: NCI Yeast Anticancer Drug Screen. Data for the mec2-1 strain (AID 157); settings: S. cerevisiae mec2-1 strain, at 50.0 µM, active compounds read high
About 79,000 compounds went through this panel and 15% of them were active in at least one assay; those are over-represented in the sample as a whole.
Answer each item with its documented growth inhibition.
Respond with the bare value in %.

Q: Supply recorded growth inhibition for CCCCCCCCCCCCC(=O)O.[Pb] here.
Result: 10.2

Q: Using known records, supply growth inhibition for C[CH2][Sn]1([CH2]C)[O]OC(c2ccccc2)[O]1 (configuration not stated)
Result: 2.75

Q: Return growth inhibition for the following molecule: CCCCCCCCCCCCCCC(O)C1CCC(C(O)CCC(O)CCCCCC(O)CC2=CC(C)OC2=O)O1 (configuration not stated)
Result: -33.1

Q: Read the entry O=c1cccc2n1CC1CNC[C@H]2C1 and write its reported growth inhibition.
Result: 9.5

Q: Supply recorded growth inhibition for CC1=NN(c2cccc(S(=O)(=O)O)c2)C(=O)C1N=Nc1cc(Cl)cc(S(=O)(=O)O)c1O.O.[Cr] (configuration not stated) here.
Result: -25.1

Q: Look up and state reported growth inhibition for O.O.O=C(O)CC(=O)O.[NH-]C1CCCCC1[NH-].[Pt+2] (configuration not stated)
Result: -5.3

Q: Look up and state reported growth inhibition for CCOC(=O)CNC(=O)C1C2c3ccccc3C(c3ccccc32)C1C(=O)O (configuration not stated)
Result: 95.4

Q: Supply growth inhibition value. Item: C1CC[N-]CC1.CC(=N\O)/C(C)=N/O.CC(=N\O)/C(C)=N/O.N#C[CH-]CC#N.[Co+2]
Result: 19.2

Q: Look up and state reported growth inhibition for Cc1cc(N(C)CCCl)ccc1N=Nc1ccccc1C(=O)O
Result: 10.8

Q: // Input: N#CCCCCCl . Output its growth inhibition only.
Result: 10.9

Q: // fetch growth inhibition given entry [CH3][Sb]([CH3])([CH3])([O]C(=O)C(Cl)Cl)[O]C(=O)C(Cl)Cl
Result: -7.15

Q: Dear colleague, please send me the reported growth inhibition for O=[N+]([O-])C=C([SH2+])[SH2+].O=[N+]([O-])C=C([SH2+])[SH2+].[Ni+2].c1ccc(C[P+](c2ccccc2)(c2ccccc2)c2ccccc2)cc1 when you can.
Result: 97.7

Q: Report growth inhibition, nothing else, for this molecule: CC(C=O)[Se]c1ccccc1 (configuration not stated)
Result: 77.7

Q: Please supply the value of reported growth inhibition for the item NC(P(=O)(O)O)P(=O)(O)O
Result: -1.2

Q: Tell us which growth inhibition value is on record for CC1(CCN)COC(c2ccccc2)(c2ccccc2)OC1 (tested in a mixture with another compound)
Result: 4.15

Q: Identify the reported growth inhibition for the following entry. CCOP(=O)(OCC)/C(C#N)=C/c1ccc(C#N)cc1
Result: 15.8

Q: Supply recorded growth inhibition for COc1ccc(C[C@@H]2NC[C@@H](O)[C@@H]2OC(C)=O)cc1 here.
Result: 93.2

Q: Please list growth inhibition recorded for the molecule O=CC=O
Result: 17.6

Q: Supply recorded growth inhibition for CN1CCc2c([nH]c3ccccc23)C1 here.
Result: -7.3

Q: Answer with the recorded growth inhibition for the molecule listed here: OC(c1ccccc1)(c1ccccc1)c1ccccn1
Result: 53.4

Q: Check the records and state growth inhibition for COC1OC2COc3ccccc3OC2C(N=C(N)N[N+](=O)[O-])C1OS (configuration not stated)
Result: -7.55

Q: Specify growth inhibition for CC(C)=NNC1=NC(CC(C)C)P(=O)(NCCCCNP2(=O)SC(NN=C(C)C)=NC2CC(C)C)S1 (configuration not stated) and stop.
Result: 17.5

----------
assay: NCI Yeast Anticancer Drug Screen. Data for the rad50 strain (AID 155);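 further: 0% = growth of vehicle-only cultures of the same strain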; conditions: S. cerevisiae rad50 strain growth inhibition; at 50.0 µM
About 79,000 compounds went through this panel and 15% of them were active in at least one assay; those are over-represented in the sample as a whole. Calls of active or inactive are those of the source. Cut-off read from the data, not from the text of the source: active = growth inhibition above about 70%; inactive = the rest.
API: response.call in T for active, F for inactive

Q: Returns: the outcome recorded for Nc1nc(N)n2c(N)nnc2n1 in this assay.
Result: F

Q: // return assay outcome for COc1cc(/C=C/[N+](=O)[O-])cc(Br)c1OC
Result: T

Q: Dear all, I need the recorded test outcome for COC(=O)C[CH2][Sn]([CH2]CC(=O)OC)([c]1ccccc1)[c]1ccccc1 , thank you.
Result: F

Q: Each molecule tested received a call. Report the one for CN(C)c1ccc(C(c2c(O)c3ccccc3oc2=O)c2c(O)c3ccccc3oc2=O)cc1 .
Result: F

Q: Which outcome was entered for the molecule CC(C)(C)C[C](C)(c1ccccc1)[Sn]([CH3])([CH3])[CH3] (stereo not drawn) in this test?
Result: F

Q: Short answer needed: outcome of this test for COCC#CCN(C)C ?
Result: F

Q: Answer briefly: the call reported for O=C1CCP(c2ccccc2)(c2ccccc2)(c2ccccc2)O1 in this assay.
Result: F

Q: I'd appreciate the recorded outcome for Cc1ccc(CCl)c(O)c1 from this test.
Result: F

Q: Tell me the recorded outcome of this test for CC(C)(C)[SH+]CC[SH+]C(C)(C)C.[C-]#[O+].[C-]#[O+].[C-]#[O+].[C-]#[O+].[Cr] .
Result: F

Q: I'd appreciate the recorded outcome for C/C(=N\N=C(N)N)C(CN1CCCCC1)C(c1ccccc1)c1c(O)c2ccccc2oc1=O (stereo not drawn) from this test.
Result: F

Q: Field: outcome | Entry: O=[As](O)(O)c1ccc2nc3cc([As](=O)(O)O)ccc3nc2c1
Result: F

Q: Entry CC(CC(C#N)(c1ccccc1)c1ccccc1)[N+]1(C)CCCCCCC1 (stereo not drawn) : call = ?
Result: F

Q: For O=C(Nc1ccc(O)cc1)c1c(O)[nH]c(=S)[nH]c1=O , what call appears in the results of this test?
Result: F

Q: So what was the verdict on COC1(O[C@H]2CC[C@H]3[C@@H]4CCC5=CC(=O)CC[C@]5(C)[C@H]4CC[C@]23C)CCCCC1 in this test?
Result: T

Q: Outcome? COc1cc(CC[N+](C)(C)C)cc(OC)c1OC
Result: F

Q: Name the outcome recorded for CC(=O)Nc1ncc2ccccc2c1-c1ccc(NC(=O)CCN(CCCl)CCCl)cc1 in the assay.
Result: T

Q: Any idea what this test logged for Cc1ccc2[nH]cc(CCN(C)C)c2c1 ?
Result: F

Q: Hey, what did the test say about O=CC=O ?
Result: F

Q: Outcome logged for O=C(N/N=C/c1cc(Br)cc(Br)c1[O-])c1ccccc1O.O=C(N/N=C/c1cc(Br)cc(Br)c1[O-])c1ccccc1O.[Zn+2] in this assay:
Result: F

Q: Could you kindly confirm the outcome this assay logged for CCOP(=S)(OCC)OCC1OC(OC)C2OC(C)(C)OC12 (stereo not drawn) ?
Result: F

Q: Hi team, can someone confirm the assay call for [CH3][Sn]([CH3])([Cl])[S]CCN ?
Result: F

Q: What did this assay record as the result for COc1cc2c(cc1O)N=C[C@@H]1CCC(O)N1C2=O (mixture of isomers) ?
Result: F

Q: Please state the recorded outcome for this molecule: NCCCP(c1ccccc1)c1ccccc1
Result: F
